Molecular target: human AT1R (angiotensin II type 1 receptor) (Homo sapiens, UniProt P30556)
Sequence (P30556 1-359): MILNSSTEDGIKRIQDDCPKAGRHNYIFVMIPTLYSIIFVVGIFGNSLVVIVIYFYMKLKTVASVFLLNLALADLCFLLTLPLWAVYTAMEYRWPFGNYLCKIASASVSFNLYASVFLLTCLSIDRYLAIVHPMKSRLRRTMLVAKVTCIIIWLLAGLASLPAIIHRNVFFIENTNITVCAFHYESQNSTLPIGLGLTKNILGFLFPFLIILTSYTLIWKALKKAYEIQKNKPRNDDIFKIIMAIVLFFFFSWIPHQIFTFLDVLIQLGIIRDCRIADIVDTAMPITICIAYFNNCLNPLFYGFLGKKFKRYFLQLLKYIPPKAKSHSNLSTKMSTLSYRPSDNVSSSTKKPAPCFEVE
Assay: inhibition of AngII-induced beta-arrestin activation, cell impedance
Assay type: cell-based
QUANTITY: IC50 (nM)

See these solved cases before continuing.
CCCCc1ncc(/C=C(\Cc2cccs2)C(=O)O)n1Cc1ccc(C(=O)O)cc1: 7.5
CCCc1nc(C(C)(C)O)c(C(=O)O)n1Cc1ccc(-c2ccccc2-c2nnn[nH]2)cc1: 20.4

a. CCOc1nc2cccc(C(=O)O)c2n1Cc1ccc(-c2ccccc2-c2nnn[nH]2)cc1
b. CCOc1nc2cccc(C(=O)O)c2n1Cc1ccc(-c2ccccc2-c2noc(=O)[nH]2)cc1
Given the two records a and b , choose the one whose IC50 value is lower. Indicate which entry you chose by stating its label.
a
(a: 0.7 nM, b: 1.6 nM)
